Where do these numbers come from? They come from patent US20240254119A1.

Assay: Three time point assay for plasma, brain and testes distribution after oral dosing
Assay type: in vivo, rat
Settings: rat, oral dosing, time point 2 h
Protocol: Exemplary compounds were tested for distribution in plasma, brain and testes tissue following oral dosing of the compounds in rats. Procedures and results are described below. […] For PO dosing, the dose formulation was administered via oral gavage following facility SOPs. The dose volume was determined by the animals' body weight collected on the morning of dosing day. […]
Kind request: treat 0.9 as inclusive, so Kp testes/plasma at 0.9 or higher is true (1), anything lower is false (0).

Prompt: Record Cc1ccc(-c2noc(C3(C)CC(F)(F)CN3)n2)cc1NC(=O)c1cnc2ccccn12 (racemic) ; criterion: Kp testes/plasma no lower than 0.9. Met?
Completion: true (1)

Prompt: Try this compound too: Cc1ccc(-c2noc(C3CCS(=O)(=O)N3)n2)cc1NC(=O)c1cnc2ccccn12 (racemic)
Completion: false (0)

Prompt: Try Cc1ccc(-c2noc(C(C)NS(C)(=O)=O)n2)cc1NC(=O)c1cnc2ccccn12 (single isomer, unassigned) [Compound I-238] next.
Completion: false (0)

Prompt: Queued: Cc1ccc(-c2noc(C3CC(OCCF)C3)n2)cc1NC(=O)c1cnc2ccccn12 (stereo not drawn)
Completion: true (1)

Prompt: Then this compound: `Cc1ccc(-c2noc([C@H]3C[C@@H]3F)n2)cc1NC(=O)c1cnc2ccc(C#N)cn12`
Completion: true (1)

Prompt: Cool, now `COC(=O)N1CC(c2nc(-c3ccc(Cl)c(NC(=O)c4cnc5ccccn45)c3)no2)C1`
Completion: false (0)

Prompt: What do we get for `Cc1ccc(-c2noc(C3(N)CC4(CC(F)(F)C4)C3)n2)cc1NC(=O)c1cnc2ccccn12` ?
Completion: true (1)

Prompt: `Cc1ccc(-c2noc(C3(O)CC(F)(F)C3)n2)cc1NC(=O)c1cnc2ccccn12` ?
Completion: false (0)
